# target-or-system: CADM1 on small cell lung cancer cell lines H146 and H69 (human) (UniProt Q9BY67)
# test-summary: flow cytometry, 1 ug scFv on 5x10^5 H69 cells, PE anti-HA
Items are presented alongside their recorded 결합력 %.
Please give a number only; it is taken to be in %.

{"binder": "4A2 (scFv, V domains shown) VH: AVTLDESGGGLQTPGRALSLACKGSGFTFSSYAMNWVRQAPGKGLEFVAQITSSGRYTYYGTAVKGRATISRDNGQSTVRLQLNNLRAEDSGTYYCAKDAAAGYYDGATAGDIDAWGHGTEVIVSS VL: LTQPSSVSANPGETVKITCSGGYNRYGWYQQKSPGSAPVTVIYSNNQRPSNIPSRFSGSKSGSTATLTITGVQAEDEAVYYCGSYDSSDGYAGIFGAGTTLTVL", "endpoint-unit": "%", "결합력 %": 29.1}
{"binder": "4A8 (scFv, V domains shown) VH: AVTLDESGGGLQTPGGGLSLVCKASGFTFSSYAMNWVRQAPGKGLEFVAQITSSGRYTYYGTAVKGRATISRDNGQSTVRLQLNNLRAEDSGTYYCAKDAAAGYYDGATAGDIDAWGHGTEVIVSS VL: LTQPSSVSANLGGTVKITCSGGSGSNHYGWYQQKSPGSAPVTVIYSNNKRPSNIPSRFSGSKFGSTATLTITGVQADDEAVYYCGGYDSSAGYIGPFGAGTTLTVL", "endpoint-unit": "%", "결합력 %": 61.1}
{"binder": "RB11 (scFv, V domains shown) VH: AVTLDESGGGLQTPGGGLSLVCKGSGFTFSSYAMNWVRQAPGKGLEFVAQITSSGRYTYYGTAVKGRATISRDNGQSTVRLQLNNLRAEDSGTYYCAKDAAAGYYDGATAGDIDAWGHGTEVIVSS VL: LTQPSSVSANPGGTVKITCSGGSGSYGWFQQKAPGSAPVTLIYANTNRPSDIPSRFSGSKSGSTATLTITGVQVEDEAVYYCGSTDSSYVSIFGAGTTLTVL", "endpoint-unit": "%", "결합력 %": 61.8}

Could you now look at the following binder, please?
**Query** Identify the reported 결합력 % for the following entry. RH6 (scFv, V domains shown) VH: AVTLDESGGGLQTPGGGLSLVCKGSGFTFSSYAMNWVRQAPGKGLEFVAQITSSGRYTYYGTAVKGRATISRDNGQSTVRLQLNNLRAEDSGTYYCAKDAAAGYYDGATAGDIDAWGHGTEVIVSS VL: VTQPSSVSANPGESVKITCSGGSYSYGWYQQKSPGSAPVTVIYSNNQRPSNIPSRFSGSTSGSTSTLTITGVQADDEAVYFCGTFDSSTNAAFGAGTTLTVL
**Result** 12
